- System: MEXF989
- Protocol details: Cytotoxicity against MEXF989 cells after 2 to 7 days by clonogenic assay
- Format: functional, cell-based
- Test context: Homo sapiens, MEXF 989
pIC50: −log10 of the molar value.
Result type: pIC50

1) C[C@@H]1CC(=O)[C@@H](O)[C@]2(O1)O[C@@H]1CC(=O)O[C@@H]1C1=C2C(=O)c2c(O)cccc2C1=O 6.53

###

- Protocol details: Cytotoxicity against CXF158 cells after 2 to 7 days by clonogenic assay
- Assay type: functional, cell-based
- Test context: Homo sapiens
pIC50: −log10 of the molar value.
Result type: pIC50

1) C[C@@H]1CC(=O)[C@@H](O)[C@]2(O1)O[C@@H]1CC(=O)O[C@@H]1C1=C2C(=O)c2c(O)cccc2C1=O 6.59

###

- Protocol details: Cytotoxicity against MEXF520L cells after 4 days by monolayer assay
- Type: functional, cell-based
- Test context: Homo sapiens, MEXF 520L, 96 h
pIC50: −log10 of the molar value.
Result type: pIC50

1) C[C@@H]1CC(=O)[C@@H](O)[C@]2(O1)O[C@@H]1CC(=O)O[C@@H]1C1=C2C(=O)c2c(O)cccc2C1=O 7.06

###

- System: RXF 393
- Protocol details: Cytotoxicity against RXF393NL cells after 4 days by monolayer assay
- Format: functional, cell-based
- Test context: Homo sapiens, RXF 393NL, 96 h
pIC50: −log10 of the molar value.
Result type: pIC50

1. C[C@@H]1CC(=O)[C@@H](O)[C@]2(O1)O[C@@H]1CC(=O)O[C@@H]1C1=C2C(=O)c2c(O)cccc2C1=O 7.02

###

- Protocol details: Cytotoxicity against RXF944L cells after 4 days by monolayer assay
- Type: functional, cell-based
- Test context: Homo sapiens, RXF 944L, 96 h
pIC50: −log10 of the molar value.
Result type: pIC50

1) C[C@@H]1CC(=O)[C@@H](O)[C@]2(O1)O[C@@H]1CC(=O)O[C@@H]1C1=C2C(=O)c2c(O)cccc2C1=O 7.02

###

- Protocol details: Cytotoxicity against BXF1218L cells after 4 days by monolayer assay
- Type: functional, cell-based
- Test context: Homo sapiens, BXF 1218L, 96 h
Result type: IC50 (nM)

1. C[C@@H]1CC(=O)[C@@H](O)[C@]2(O1)O[C@@H]1CC(=O)O[C@@H]1C1=C2C(=O)c2c(O)cccc2C1=O 140

###

- Protocol details: Cytotoxicity against MAXF1162 cells after 2 to 7 days by clonogenic assay
- Assay type: functional, cell-based
- Test context: Homo sapiens
Result type: IC50 (nM)

1. C[C@@H]1CC(=O)[C@@H](O)[C@]2(O1)O[C@@H]1CC(=O)O[C@@H]1C1=C2C(=O)c2c(O)cccc2C1=O 455
